Assignment: determine reported BTX Inhibition for the given compounds.
- System: batrachotoxin (BTX) binding site of the sodium channel
- Procedure summary: Affinity to the batrachotoxin (BTX) binding site of the sodium channel
- Condition parameters: rat cerebrocortex synaptosomes, [3H]-batrachotoxinin A20 α-benzoate 10 nM; test concentration not given
Lab note: jot down the number only; don't add units.

Q: Find the measured BTX Inhibition of CCOC(=O)CN1C(=O)C(Cc2ccccc2)NC12CCN(S(=O)(=O)c1cccs1)CC2 (centres unmarked) and report it.
Result: 30

Q: Find the measured BTX Inhibition of CSCCC1NC2(CCN(C(=S)Nc3cc(F)ccc3F)CC2)N(Cc2ccccc2)C1=O (centres unmarked) and report it.
Result: 53

Q: Find the measured BTX Inhibition of CCOC(=O)CN1C(=O)C(Cc2ccccc2)NC12CCN(S(=O)(=O)c1cccc(C)c1)CC2 (centres unmarked) and report it.
Result: 36

Q: Find the measured BTX Inhibition of CC(C)CC1NC2(CCN(C(=S)Nc3cc(C(F)(F)F)cc(C(F)(F)F)c3)CC2)N(Cc2ccccc2C#N)C1=O (centres unmarked) and report it.
Result: 91

Q: Find the measured BTX Inhibition of C=CCN1C(=O)C(CCSC)NC12CCN(S(=O)(=O)c1ccc3c(c1)CN(C(=O)C(F)(F)F)CC3)CC2 (centres unmarked) and report it.
Result: 32

Q: Find the measured BTX Inhibition of C=CCN1C(=O)C(C(C)C)NC12CCN(C(=S)Nc1cc(F)ccc1F)CC2 (centres unmarked) and report it.
Result: 33

Q: Find the measured BTX Inhibition of CCOc1ccc(NC(=O)N2CCC3(CC2)NC(CCSC)C(=O)N3Cc2ccccc2)cc1 (centres unmarked) and report it.
Result: 41

Q: Find the measured BTX Inhibition of CC1(C)C2CCC1(CS(=O)(=O)N1CCC3(CC1)NCC(=O)N3Cc1ccccc1F)C(=O)C2 (centres unmarked) and report it.
Result: 32

---

Assignment: determine reported BTX Inhibition for the given compounds.
- Test system: batrachotoxin (BTX) binding site of the sodium channel
- Procedure summary: Affinity to the batrachotoxin (BTX) binding site of the sodium channel
- Condition parameters: rat cerebrocortex synaptosomes, [3H]-batrachotoxinin A20 α-benzoate 10 nM; test concentration not given
Lab note: jot down the number only; don't add units.

Q: Find the measured BTX Inhibition of C=CCNC(=S)N1CCC2(CC1)NC(C(C)C)C(=O)N2Cc1ccc(C(=O)OC)cc1 (stereo not shown) [Example 126] and report it.
Result: 37

Q: Find the measured BTX Inhibition of Cc1cc(C)c(C)c(S(=O)(=O)N2CCC3(CC2)NC(Cc2ccccc2)C(=O)N3Cc2ccccc2)c1C (stereo not shown) [Example 24] and report it.
Result: 67

Q: Find the measured BTX Inhibition of CCCCN1C(=O)C(C(C)C)NC12CCN(C(=S)Nc1cc(Cl)ccc1Cl)CC2 (stereo not shown) [Example 117] and report it.
Result: 44

Q: Find the measured BTX Inhibition of CSCCC1NC2(CCN(C(=O)Nc3ccc(OC(F)(F)F)cc3)CC2)N(Cc2ccc(F)cc2)C1=O (stereo not shown) [Example 237] and report it.
Result: 87

---

- Tested target: 5-HT transporter (Rattus norvegicus)
- Construct: from tissue; host or cells: rat brain synaptosomes (marrow/medulla and pons), P2 fraction
- Sequence (P31652 whole entry): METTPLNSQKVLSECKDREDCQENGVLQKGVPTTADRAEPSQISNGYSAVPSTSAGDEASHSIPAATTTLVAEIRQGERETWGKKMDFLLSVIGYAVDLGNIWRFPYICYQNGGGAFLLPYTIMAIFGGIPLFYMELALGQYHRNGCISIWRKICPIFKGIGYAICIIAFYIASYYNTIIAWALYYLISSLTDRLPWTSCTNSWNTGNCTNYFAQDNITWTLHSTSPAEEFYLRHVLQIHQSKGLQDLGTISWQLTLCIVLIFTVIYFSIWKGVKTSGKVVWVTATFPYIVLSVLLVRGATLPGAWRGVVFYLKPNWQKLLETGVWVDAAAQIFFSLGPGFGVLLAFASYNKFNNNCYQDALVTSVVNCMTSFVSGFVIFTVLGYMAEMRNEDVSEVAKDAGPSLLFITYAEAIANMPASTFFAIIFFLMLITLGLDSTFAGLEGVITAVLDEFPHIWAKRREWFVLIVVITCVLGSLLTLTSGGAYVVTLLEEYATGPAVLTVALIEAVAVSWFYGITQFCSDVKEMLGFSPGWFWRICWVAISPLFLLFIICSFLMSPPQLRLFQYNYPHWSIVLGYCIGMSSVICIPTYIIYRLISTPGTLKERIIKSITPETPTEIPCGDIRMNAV
- Procedure summary: Inhibition of 5-HT uptake in synaptosomes
- Type: biochemical
- Condition parameters: rat, 1 μM
Measurement label: Uptake_5-HT, rat, 1 μM, % inhibition (%)
Answer format: numeric, % implied, no suffix.

Q: Find the measured Uptake_5-HT, rat, 1 μM, % inhibition of O=C1C(Cc2ccccc2)NC2(CCN(S(=O)(=O)c3ccc([N+](=O)[O-])cc3)CC2)N1Cc1ccccc1 (stereo not shown) [Example 43] and report it.
Result: 71

Q: Find the measured Uptake_5-HT, rat, 1 μM, % inhibition of CSCCC1NC2(CCN(C(=O)Nc3cccc(C#N)c3)CC2)N(Cc2ccccc2)C1=O (stereo not shown) [Example 208] and report it.
Result: 45

Q: Find the measured Uptake_5-HT, rat, 1 μM, % inhibition of CSCCC1NC2(CCN(C(=S)NC(C)c3ccccc3)CC2)N(Cc2ccc3ccccc3c2)C1=O (stereo not shown) [Example 148] and report it.
Result: 49

Q: Find the measured Uptake_5-HT, rat, 1 μM, % inhibition of CSCCC1NC2(CCN(C(=S)Nc3cccc(C(C)=O)c3)CC2)N(Cc2ccc3ccccc3c2)C1=O (stereo not shown) [Example 165] and report it.
Result: 42

Q: Find the measured Uptake_5-HT, rat, 1 μM, % inhibition of CSCCC1NC2(CCN(C(=S)Nc3cccc(C#N)c3)CC2)N(Cc2ccc(F)cc2)C1=O (stereo not shown) [Example 192] and report it.
Result: 38

Q: Find the measured Uptake_5-HT, rat, 1 μM, % inhibition of O=C1C(Cc2ccccc2)NC2(CCN(S(=O)(=O)c3ccccc3)CC2)N1Cc1ccccc1F (stereo not shown) [Example 71] and report it.
Result: 76

Q: Find the measured Uptake_5-HT, rat, 1 μM, % inhibition of CSCCC1NC2(CCN(C(=S)Nc3ccc(C(C)C)cc3)CC2)N(Cc2ccccc2)C1=O (stereo not shown) [Example 139] and report it.
Result: 63

Q: Find the measured Uptake_5-HT, rat, 1 μM, % inhibition of Cc1ccc(S(=O)(=O)N2CCC3(CC2)NC(Cc2ccccc2)C(=O)N3Cc2ccccc2)cc1 (stereo not shown) [Example 45] and report it.
Result: 74

Q: Find the measured Uptake_5-HT, rat, 1 μM, % inhibition of COc1cc(C)c(S(=O)(=O)N2CCC3(CC2)NC(Cc2ccccc2)C(=O)N3Cc2ccccc2)c(C)c1C (stereo not shown) [Example 31] and report it.
Result: 67

Q: Find the measured Uptake_5-HT, rat, 1 μM, % inhibition of CSCCC1NC2(CCN(S(=O)(=O)c3ccccc3Cl)CC2)N(Cc2ccccc2[N+](=O)[O-])C1=O (stereo not shown) [Example 82] and report it.
Result: 49

Q: Find the measured Uptake_5-HT, rat, 1 μM, % inhibition of CSCCC1NC2(CCN(C(=S)Nc3cc(F)ccc3F)CC2)N(Cc2ccccc2)C1=O (stereo not shown) [Example 140] and report it.
Result: 59

Q: Find the measured Uptake_5-HT, rat, 1 μM, % inhibition of CSCCC1NC2(CCN(C(=O)Nc3cccc(C(C)=O)c3)CC2)N(Cc2ccccc2)C1=O (stereo not shown) [Example 214] and report it.
Result: 51

Q: Find the measured Uptake_5-HT, rat, 1 μM, % inhibition of CCOC(=O)CN1C(=O)C(CCSC)NC12CCN(S(=O)(=O)Cc1ccccc1)CC2 (stereo not shown) [Example 57] and report it.
Result: 32

Q: Find the measured Uptake_5-HT, rat, 1 μM, % inhibition of CCCCN1C(=O)C(C(C)C)NC12CCN(C(=S)Nc1ccccc1)CC2 (stereo not shown) [Example 116] and report it.
Result: 40

Q: Find the measured Uptake_5-HT, rat, 1 μM, % inhibition of O=C(Nc1cc(F)ccc1F)N1CCC2(CC1)NC(Cc1ccccc1)C(=O)N2Cc1ccccc1F (stereo not shown) [Example 230] and report it.
Result: 63

Q: Find the measured Uptake_5-HT, rat, 1 μM, % inhibition of O=C1C(Cc2ccccc2)NC2(CCN(S(=O)(=O)c3ccccc3C(F)(F)F)CC2)N1Cc1ccccc1F (stereo not shown) [Example 81] and report it.
Result: 81

Q: Find the measured Uptake_5-HT, rat, 1 μM, % inhibition of CCOC(=O)CN1C(=O)C(Cc2ccccc2)NC12CCN(S(=O)(=O)c1cccc(C)c1)CC2 (stereo not shown) [Example 63] and report it.
Result: 59

Q: Find the measured Uptake_5-HT, rat, 1 μM, % inhibition of C=CCN1C(=O)C(CCSC)NC12CCN(S(=O)(=O)c1c(C)cc(OC)c(C)c1C)CC2 (stereo not shown) [Example 79] and report it.
Result: 37

Q: Find the measured Uptake_5-HT, rat, 1 μM, % inhibition of CCOc1ccc(NC(=S)N2CCC3(CC2)NC(CCSC)C(=O)N3Cc2ccc(F)cc2)cc1 (stereo not shown) [Example 200] and report it.
Result: 30

Q: Find the measured Uptake_5-HT, rat, 1 μM, % inhibition of CC(C)C1NC2(CCN(C(=S)Nc3cc(Cl)cc(Cl)c3)CC2)N(Cc2ccccc2)C1=O (stereo not shown) [Example 177] and report it.
Result: 36

Q: Find the measured Uptake_5-HT, rat, 1 μM, % inhibition of CC(C)C1NC2(CCN(S(=O)(=O)c3ccc([N+](=O)[O-])cc3)CC2)N(Cc2cccc(C#N)c2)C1=O (stereo not shown) [Example 52] and report it.
Result: 53

Q: Find the measured Uptake_5-HT, rat, 1 μM, % inhibition of Cc1cc(C)c(C)c(S(=O)(=O)N2CCC3(CC2)NC(Cc2ccccc2)C(=O)N3Cc2ccccc2)c1C (stereo not shown) [Example 24] and report it.
Result: 66

Q: Find the measured Uptake_5-HT, rat, 1 μM, % inhibition of CCCCN1C(=O)C(CCSC)NC12CCN(S(=O)(=O)c1ccc(OC)c(OC)c1)CC2 (stereo not shown) [Example 30] and report it.
Result: 53

Q: Find the measured Uptake_5-HT, rat, 1 μM, % inhibition of CC(C)C1NC2(CCN(S(=O)(=O)c3ccccc3Cl)CC2)NC1=O (stereo not shown) [Example 8] and report it.
Result: 55

Q: Find the measured Uptake_5-HT, rat, 1 μM, % inhibition of CCc1ccc(S(=O)(=O)N2CCC3(CC2)NC(Cc2ccccc2)C(=O)N3Cc2ccccc2)cc1 (stereo not shown) [Example 35] and report it.
Result: 79

Q: Find the measured Uptake_5-HT, rat, 1 μM, % inhibition of CCOC(=O)CN1C(=O)C(Cc2ccccc2)NC12CCN(S(=O)(=O)c1ccccc1C(F)(F)F)CC2 (stereo not shown) [Example 65] and report it.
Result: 71

Q: Find the measured Uptake_5-HT, rat, 1 μM, % inhibition of C#CCN1C(=O)C(Cc2ccccc2)NC12CCN(S(=O)(=O)c1ccccc1C(F)(F)F)CC2 (stereo not shown) [Example 39] and report it.
Result: 38

Q: Find the measured Uptake_5-HT, rat, 1 μM, % inhibition of COc1ccc(S(=O)(=O)N2CCC3(CC2)NC(Cc2ccccc2)C(=O)N3Cc2ccccc2)cc1OC (stereo not shown) [Example 29] and report it.
Result: 75

Q: Find the measured Uptake_5-HT, rat, 1 μM, % inhibition of CC(=O)c1cccc(NC(=S)N2CCC3(CC2)NC(Cc2ccccc2)C(=O)N3Cc2ccccc2F)c1 (stereo not shown) [Example 201] and report it.
Result: 54

Q: Find the measured Uptake_5-HT, rat, 1 μM, % inhibition of CC(C)C1NC2(CCN(C(=S)Nc3cc(Cl)ccc3Cl)CC2)N(Cc2ccccc2)C1=O (stereo not shown) [Example 136] and report it.
Result: 44

Q: Find the measured Uptake_5-HT, rat, 1 μM, % inhibition of CCOC(=O)CN1C(=O)C(Cc2ccccc2)NC12CCN(S(=O)(=O)c1cc(OC)ccc1OC)CC2 (stereo not shown) [Example 74] and report it.
Result: 74
